Origin of measurements: PubChem BioAssay AID1259341

# target or test system: Caspase recruitment domain-containing protein 9 (Homo sapiens) + E3 ubiquitin-protein ligase TRIM62 (Homo sapiens) (UniProt Q9H257+Q9BVG3)
# Sequence (Q9BVG3 whole entry, looked up, the tested form may be a part): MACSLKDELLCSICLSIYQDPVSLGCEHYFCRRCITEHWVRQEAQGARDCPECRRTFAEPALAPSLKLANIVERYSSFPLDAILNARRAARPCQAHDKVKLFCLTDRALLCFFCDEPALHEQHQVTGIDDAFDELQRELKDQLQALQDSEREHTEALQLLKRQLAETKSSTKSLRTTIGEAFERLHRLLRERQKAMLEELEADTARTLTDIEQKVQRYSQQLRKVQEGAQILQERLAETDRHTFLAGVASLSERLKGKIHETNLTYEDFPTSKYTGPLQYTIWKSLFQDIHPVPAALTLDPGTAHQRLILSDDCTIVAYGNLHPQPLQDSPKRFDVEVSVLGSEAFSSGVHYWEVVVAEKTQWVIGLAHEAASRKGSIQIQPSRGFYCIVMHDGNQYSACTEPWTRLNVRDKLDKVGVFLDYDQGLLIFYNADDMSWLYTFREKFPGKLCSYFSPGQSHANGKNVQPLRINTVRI
# Sequence (Q9H257 whole entry, looked up, the tested form may be a part): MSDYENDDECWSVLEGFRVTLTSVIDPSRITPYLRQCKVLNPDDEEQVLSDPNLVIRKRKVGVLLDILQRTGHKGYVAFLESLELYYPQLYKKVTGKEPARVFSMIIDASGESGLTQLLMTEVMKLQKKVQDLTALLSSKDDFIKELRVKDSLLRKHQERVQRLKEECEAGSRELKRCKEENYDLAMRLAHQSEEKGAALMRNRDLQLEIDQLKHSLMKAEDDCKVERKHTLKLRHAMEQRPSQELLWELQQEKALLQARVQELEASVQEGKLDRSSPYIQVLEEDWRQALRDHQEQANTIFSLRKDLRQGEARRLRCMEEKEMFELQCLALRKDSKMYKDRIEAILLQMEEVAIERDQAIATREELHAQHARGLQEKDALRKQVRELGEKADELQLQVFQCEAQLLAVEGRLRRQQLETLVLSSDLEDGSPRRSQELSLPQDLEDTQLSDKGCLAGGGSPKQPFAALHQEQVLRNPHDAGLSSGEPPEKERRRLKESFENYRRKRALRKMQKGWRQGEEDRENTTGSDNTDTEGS
# assay method text: disruptors of CARD9-TRIM62 binding, primary screen, cell lysate, HEK293FT lysates, Luminex bead ELISA (AID 1259341);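 note: PE anti-Flag signal of Flag-CARD9 captured by myc-TRIM62 beads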
# test settings: PE fluorescence, concentration not given here
Activity calls are given as the source filed them.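 Rule for the calls: active = activity change under -35% in any replicate well, with more than 20 beads read in that well; inactive = the rest.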
Valid outcomes are listed here; reply with one: 1 (yes) (active), 0 (no) (inactive)

Please review the following examples before continuing.
CCC1c2ccc(C)n2CCN1C(=O)Nc1ccccc1C(=O)OC (centres undefined)    0 (no)
O=C(O)c1cc(-c2ccco2)nc2ccccc12    0 (no)
CCOC(=O)/C=C/S(=O)(=O)c1ccc(NC(C)=O)cc1    0 (no)
CCCc1oc(C(=O)O)cc1CN    0 (no)
CCc1nc(OCc2ccco2)c2sc3nc4c(cc3c2n1)COC(C)(C)C4    0 (no)

Next:
Status in this test for Cc1ccc(C2CC(=O)C3=C(C2)Nc2ccccc2NC3c2cccnc2)cc1 (centres undefined) ?
0 (no)

* * *

# target or test system: Caspase recruitment domain-containing protein 9 (Homo sapiens) + E3 ubiquitin-protein ligase TRIM62 (Homo sapiens) (UniProt Q9H257+Q9BVG3)
# assay method text: disruptors of CARD9-TRIM62 binding, primary screen, cell lysate, HEK293FT lysates, Luminex bead ELISA (AID 1259341);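 note: PE anti-Flag signal of Flag-CARD9 captured by myc-TRIM62 beads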
# test settings: PE fluorescence, concentration not given here
Active and inactive are the calls of the source.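 Rule for the calls: active = activity change under -35% in any replicate well, with more than 20 beads read in that well; inactive = the rest.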
Allowed answers: Yes = active, No = inactive

Sample answers from the record:
O=[N+]([O-])c1ccc2nn(Cc3ccccc3)cc2c1    No
O=C(NCc1ccco1)C1CCCN(S(=O)(=O)c2cccc3nonc23)C1 (stereo not drawn)    No
COc1ccc(S(=O)(=O)c2ccccc2)cc1NS(=O)(=O)c1cccc(C(=O)O)c1    No

For O=C(NC(Sc1ncccn1)C(=O)c1ccccc1)c1ccccc1 (stereo not drawn) , what call appears in the results of this test?
No

Next entry: `O=C(Nc1ccc2oc(-c3ccncc3)nc2c1)c1ccc2c(c1)OCCO2`
No

Would you mind doing `Cc1cccc2nc(CSCc3ccco3)cn12` as well?
No

* * *

activity change, negative = inhibition values, listed per item
# target or test system: Caspase recruitment domain-containing protein 9 (Homo sapiens) + E3 ubiquitin-protein ligase TRIM62 (Homo sapiens) (UniProt Q9H257+Q9BVG3)
# assay method text: disruptors of CARD9-TRIM62 binding, primary screen, cell lysate, HEK293FT lysates, Luminex bead ELISA (AID 1259341);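 note: PE anti-Flag signal of Flag-CARD9 captured by myc-TRIM62 beads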
# test settings: PE fluorescence, stronger effect = lower value, concentration not given here
Use % as the unit, but write only the number.

Past entries and their recorded results:
COc1ccc(NC(=O)CN(C)C(=O)c2cc(-c3ccco3)nc3ccccc23)cc1    -8.21
N#Cc1c(N)oc(-c2ccco2)c1-c1ccco1    -6.71

Quick check: activity change, negative = inhibition of `C=CCNc1ncnc2c1CCN(C(=O)c1ccc(CSC)o1)CC2` ?
2.9

Follow-up entry: `O=C(CCCN1C(=O)NC2(CCCC2)C1=O)Nc1ccc(F)cc1`
23.8

Same thing, different compound: `Cc1ccc(Nc2nc(C(=O)Nc3ccc(Br)cc3)nc3ccccc23)cc1`
4.69

Field entry: `CCOc1ccc(CNc2nc(-c3nnc(-c4ccc(F)cc4)o3)nc3ccccc23)cc1`
14.1

Also need `CC1CCN(c2nc(-c3ccco3)c3c(c2C#N)CC(C)(C)OC3)CC1` , thanks.
5.51

Ok, now `O=C(O)c1ccc2nc(-c3ccco3)c(-c3ccco3)nc2c1`
-13.9

Same thing, different compound: `Cc1cncc(-c2ccc(S(N)(=O)=O)cc2F)c1`
-3.94

Can you handle `COc1ccc(-n2c(C)c3c(OC)cccc(=O)c3c2C)cc1` next?
3.94
